test system: FB; test: Euclidean distance of Cell Painting phenotypic profile (signed KS, 77 features) to DMSO centroid (dimensionless distance); 5 or 10 uM (library dependent); higher = stronger phenotypic change vs DMSO (phenoactivity); conditions: 48 h
Counter-ions that a name gives are not always drawn.
Label fulfilled for high-side Euclidean distance (at or above 1) and not fulfilled for low-side Euclidean distance (below it).

CCOC(=O)Nc1cc(-c2ccc(C)c(NS(C)(=O)=O)c2)nn2c(C)nnc12 [Bromosporine]	fulfilled
O[C@@H](COc1cccc2ncccc12)CN1CCN(C2c3ccccc3[C@@H]3[C@H](c4ccccc42)C3(F)F)CC1 (stereo partly drawn)	not fulfilled
O=C(Nc1ccncc1)c1cc([N+](=O)[O-])ccc1Cl	not fulfilled
O=C1[C@H](CC[C@H](O)c2ccc(F)cc2)[C@@H](c2ccc(O)cc2)N1c1ccc(F)cc1 [Ezetimibe]	fulfilled
CCN1CCN(c2cc3c(cc2F)c(=O)c(C(=O)O)cn3C2CC2)CC1 [Enrofloxacin]	not fulfilled
CCN(CC)CC(=O)Nc1c(C)cccc1C [Lidocaine]	not fulfilled
CSc1ccc2c(c1)N(CCC1CCCCN1C)c1ccccc1S2 (stereo not drawn) [Thioridazine hydrochloride]	fulfilled
Cc1nc2c([nH]1)-c1ccccc1N(C(=O)c1ccc(NC(=O)c3ccccc3-c3ccccc3)cc1)CC2 [Conivaptan HCl]	fulfilled

----------
test system: HEPG2; experiment: Euclidean distance of Cell Painting phenotypic profile (signed KS, 77 features) to DMSO centroid (dimensionless distance); 5 or 10 uM (library dependent); higher = stronger phenotypic change vs DMSO (phenoactivity); details: 48 h
EXPERIMENTAL_ENDPOINT: Euclidean distance

COC(=O)Nc1nc2cc(Sc3ccccc3)ccc2[nH]1 [Fenbendazole]	2.12
CC[C@H](C)[C@H](N)C1=N[C@H](C(=O)N[C@@H](CC(C)C)C(=O)N[C@H](CCC(=O)O)C(=O)N[C@H](C(=O)N[C@H]2CCCCNC(=O)[C@H](CC(N)=O)NC(=O)[C@@H](CC(=O)O)NC(=O)[C@H](Cc3cnc[nH]3)NC(=O)[C@@H](Cc3ccccc3)NC(=O)[C@H]([C@@H](C)CC)NC(=O)[C@@H](CCCN)NC2=O)[C@@H](C)CC)CS1 [Bacitracin]	0.726
NC(=O)Cc1cccc(C(=O)c2ccccc2)c1N [Nepafenac]	1.14
O=C(O)C(Cc1c[nH]c2ccccc12)N1C(=O)c2ccccc2C1=O (centres undefined)	0.417

----------
Some compounds, each annotated with its measured Euclidean distance.
system: DU145; assay: Euclidean distance of Cell Painting phenotypic profile (signed KS, 77 features) to DMSO centroid (dimensionless distance); 5 or 10 uM (library dependent); higher = stronger phenotypic change vs DMSO (phenoactivity); conditions: 48 h
Where a name gives a salt, the structure may show the parent alone.
EXPERIMENTAL_ENDPOINT: Euclidean distance

COC(=O)C1=C(C)NC(C)=C(C(=O)OCCN2CCN(C(c3ccccc3)c3ccccc3)CC2)C1c1cccc([N+](=O)[O-])c1 (configuration not stated) [Manidipine 2HCl]	1.3
CC(C)[C@H]1CC[C@H](C(=O)N[C@H](Cc2ccccc2)C(=O)O)CC1 [Nateglinide]	1.17
N=c1ccn2c(n1)O[C@H]1[C@H](O)[C@@H](CO)O[C@H]12 [Cyclocytidine HCl]	2.45
O=C1C(O)=C([C@H]2CC[C@H](c3ccc(Cl)cc3)CC2)C(=O)c2ccccc21 [Atovaquone]	1.08
COc1cc(CNC(=O)CCCCC=CC(C)C)ccc1O [Capsaicin(Vanilloid)]	1.35
CC(=O)[C@H]1CC[C@H]2[C@@H]3C[C@H](C)C4=CC(=O)CC[C@]4(C)[C@H]3[C@@H](O)C[C@]12C [Medrysone]	1.96
COc1cc(C(=O)NS(=O)(=O)c2ccccc2C)ccc1Cc1cn(C)c2ccc(NC(=O)OC3CCCC3)cc12 [Zafirlukast]	1.22
